Would you mind telling me the reported Selectivity CDK9/CDK2 of each entry?
Biological target: CDK9/CycT1 (Homo sapiens (Human), UniProt P50750)
Sequence (P50750 whole entry): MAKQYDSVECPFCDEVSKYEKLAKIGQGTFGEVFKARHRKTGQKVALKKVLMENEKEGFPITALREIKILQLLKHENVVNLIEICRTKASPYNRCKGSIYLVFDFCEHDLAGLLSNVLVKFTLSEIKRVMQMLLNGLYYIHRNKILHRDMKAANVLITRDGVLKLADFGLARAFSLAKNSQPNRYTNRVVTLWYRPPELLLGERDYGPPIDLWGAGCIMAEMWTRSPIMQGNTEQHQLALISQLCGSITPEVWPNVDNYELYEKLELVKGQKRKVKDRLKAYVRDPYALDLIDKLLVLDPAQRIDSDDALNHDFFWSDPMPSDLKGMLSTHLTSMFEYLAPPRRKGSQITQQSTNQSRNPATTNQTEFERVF
Sequence (O60563 whole entry partner): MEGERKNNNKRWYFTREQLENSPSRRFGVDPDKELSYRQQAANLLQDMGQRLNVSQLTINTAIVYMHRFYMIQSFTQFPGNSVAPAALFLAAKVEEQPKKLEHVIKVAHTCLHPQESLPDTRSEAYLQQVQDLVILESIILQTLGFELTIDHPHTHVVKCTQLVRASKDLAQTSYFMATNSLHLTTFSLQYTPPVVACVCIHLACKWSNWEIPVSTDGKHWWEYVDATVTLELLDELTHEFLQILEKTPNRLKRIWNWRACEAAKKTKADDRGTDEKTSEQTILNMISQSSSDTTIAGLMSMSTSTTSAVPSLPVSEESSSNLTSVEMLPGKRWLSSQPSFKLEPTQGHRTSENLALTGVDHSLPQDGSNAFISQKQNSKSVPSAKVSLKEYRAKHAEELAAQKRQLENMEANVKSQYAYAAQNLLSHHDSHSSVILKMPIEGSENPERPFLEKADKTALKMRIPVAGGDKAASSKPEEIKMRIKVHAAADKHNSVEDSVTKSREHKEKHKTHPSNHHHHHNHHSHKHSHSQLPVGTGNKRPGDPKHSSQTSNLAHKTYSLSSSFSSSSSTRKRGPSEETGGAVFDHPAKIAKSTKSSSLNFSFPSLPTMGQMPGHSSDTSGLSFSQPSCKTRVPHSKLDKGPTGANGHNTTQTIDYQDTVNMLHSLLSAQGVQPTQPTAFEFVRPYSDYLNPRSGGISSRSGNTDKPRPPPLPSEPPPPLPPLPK
Assay: CDK9/CycT1 kinase assay (Method 1a)
Type: biochemical
Conditions: derived from Methods 1a. and 2.
From the text: 1a. CDK9/CycT1 Kinase Assay: CDK9/CycT1-inhibitory activity of compounds of the present invention was quantified employing the CDK9/CycT1 TR-FRET assay as described in the following paragraphs: Recombinant full-length His-tagged human CDK9 and CycT1, expressed in insect cells and purified by Ni-NTA affinity chromatography, were purchased from Invitrogen (Cat. No PV4131). As substrate for the kinase reaction biotinylated peptide biotin-Ttds-[…] […]
Reply briefly: the number, and no unit.

Ask | // query Selectivity CDK9/CDK2 value for entry CS(=N)(=O)Cc1cc(Br)cc(Nc2ncc(F)c(-c3ccc(F)cc3F)n2)c1 (single isomer, unassigned) [Example 41]
Reply | 28

Ask | // query Selectivity CDK9/CDK2 value for entry CS(=N)(=O)Cc1cc(Nc2ncc(F)c(-c3ccc(F)cc3F)n2)cc(C(F)(F)F)c1 (racemic) [Example 4]
Reply | 88

Ask | // query Selectivity CDK9/CDK2 value for entry CS(=O)(Cc1cc(Nc2ncc(F)c(-c3ccc(F)cc3F)n2)cc(C(F)(F)F)c1)=NC#N (racemic) [Example 1]
Reply | 105

Ask | // query Selectivity CDK9/CDK2 value for entry CS(=O)(Cc1cc(Nc2ncc(F)c(-c3ccc(F)cc3F)n2)cc(S(F)(F)(F)(F)F)c1)=NC(N)=O (single isomer, unassigned)
Reply | 98

Ask | // query Selectivity CDK9/CDK2 value for entry CS(=O)(Cc1cc(Nc2ncc(F)c(-c3ccc(F)cc3F)n2)cc(S(F)(F)(F)(F)F)c1)=NC#N (single isomer, unassigned) [Example 30]
Reply | 360

Ask | // query Selectivity CDK9/CDK2 value for entry COCCS(=O)(Cc1cc(Nc2ncc(F)c(-c3ccc(F)cc3F)n2)cc(C(F)(F)F)c1)=NC#N (racemic)
Reply | 183

Ask | // query Selectivity CDK9/CDK2 value for entry Cc1cc(CS(C)(=N)=O)cc(Nc2ncc(F)c(-c3ccc(F)cc3F)n2)c1 (racemic) [Example 17]
Reply | 19
